- System: HOP-62 NSCLC
- protocol-details: NCI tumour cell line growth inhibition, 48 h; in the data active means GI50 below about 0.43 µM; inactive means the rest
# output must be one of active, inactive

Here's what some known entries look like.
CCC1=CC2CN(C1)Cc1c([nH]c3ccccc13)[C@@](C(=O)OC)(c1cc3c(cc1OC)N(C)[C@H]1[C@@](O)(C(=O)OC)[C@H](OC(C)=O)[C@]4(CC)C=CCN5CC[C@]31[C@@H]54)C2 (stereo not given in full)	active
C=C1C(=O)O[C@H]2[C@H]1CC/C(C=Nc1c(N)cc(C(F)(F)F)cc1Br)=C\CC[C@@]1(C)O[C@@H]21	inactive
O=C(N[C@@H](C[Se][Se]C[C@H](NC(=O)c1ccc(Br)cc1F)C(=O)O)C(=O)O)c1ccc(Br)cc1F	inactive

Consider the record given below.
Ask: Give the logged outcome of this assay for the following compound: C=C(CN(C)C)C(=O)c1ccccc1[N+](=O)[O-]
Result: inactive
